Molecular target: PRMT5/MEP50 (Homo sapiens)
Sequence (O14744 2-637 limits assumed): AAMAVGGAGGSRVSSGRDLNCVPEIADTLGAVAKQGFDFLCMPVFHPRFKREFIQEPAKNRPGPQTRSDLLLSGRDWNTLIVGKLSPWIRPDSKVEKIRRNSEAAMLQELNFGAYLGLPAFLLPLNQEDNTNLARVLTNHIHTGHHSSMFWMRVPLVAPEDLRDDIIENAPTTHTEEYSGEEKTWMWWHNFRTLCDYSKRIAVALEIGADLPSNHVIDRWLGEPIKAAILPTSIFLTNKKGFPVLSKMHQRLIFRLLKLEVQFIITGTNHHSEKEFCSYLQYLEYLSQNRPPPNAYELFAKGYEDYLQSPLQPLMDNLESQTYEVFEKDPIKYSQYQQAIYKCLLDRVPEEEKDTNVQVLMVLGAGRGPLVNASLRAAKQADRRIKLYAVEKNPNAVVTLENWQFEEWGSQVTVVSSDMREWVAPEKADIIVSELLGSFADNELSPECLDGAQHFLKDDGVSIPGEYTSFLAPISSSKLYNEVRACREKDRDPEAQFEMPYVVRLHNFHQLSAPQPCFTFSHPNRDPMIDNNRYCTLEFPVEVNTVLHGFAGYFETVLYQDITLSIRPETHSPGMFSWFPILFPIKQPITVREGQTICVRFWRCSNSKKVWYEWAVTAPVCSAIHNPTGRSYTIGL
Sequence (Q9BQA1 2-342 partner limits assumed): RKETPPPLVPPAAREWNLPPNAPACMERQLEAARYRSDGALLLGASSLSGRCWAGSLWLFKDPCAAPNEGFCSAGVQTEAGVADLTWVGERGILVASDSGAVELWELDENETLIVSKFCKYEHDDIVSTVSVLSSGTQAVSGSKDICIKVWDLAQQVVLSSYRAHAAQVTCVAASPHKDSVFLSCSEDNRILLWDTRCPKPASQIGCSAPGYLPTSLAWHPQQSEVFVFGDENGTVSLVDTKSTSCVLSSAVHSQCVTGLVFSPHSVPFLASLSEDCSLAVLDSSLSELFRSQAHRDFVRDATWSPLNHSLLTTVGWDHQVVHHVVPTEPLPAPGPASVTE
Assay: MTase-Glo methyl transferase assay, Method B (FL-Histone H2A, 1 µM MTA, 1 h pre-incubation)
Assay type: biochemical
Design: purchased Reaction Biology Corp RD-11-292
Details: read-out: PRMT5 MTase Glo Ki (nM, Meth. B)
METRIC NAME: Ki (nM)

Worked examples, 2 compounds total:
COMPOUND: Cc1cc2cc(C(=O)N(Cc3cccc(-n4cncn4)c3)CC(C)C)ccc2nc1N
TESTED TARGET: PRMT5/MEP50 (Homo sapiens)
Ki (nM): 29.3

COMPOUND: Cc1cc2cc(C(=O)N(CCC3CC3)Cc3ccc(C(F)(F)F)cn3)ccc2nc1N
TESTED TARGET: PRMT5/MEP50 (Homo sapiens)
Ki (nM): 6.3

a. Cc1cc2cc(C(=O)N(Cc3ccc4[nH]c(=O)[nH]c4c3)Cc3ccc(C(F)(F)F)cn3)ccc2nc1N
b. Cc1cc2cc(C(=O)N(Cc3ccc(N4CCCC4)cc3)CC(C)C)ccc2nc1N
Task: Which value of Ki is smaller, the one for a or the one for b ? # reply format: chosen label
Result: a
(a: 2.39 nM, b: 39.6 nM)

A. Cc1cc2cc(C(=O)N(Cc3ccc(C(F)(F)F)cn3)C(C)C(C)n3cccn3)ccc2nc1N (centres unmarked)
B. COc1ccnc2c1CCCC2N(Cc1ccc(C(F)(F)F)cn1)C(=O)c1ccc2nc(N)c(C)cc2c1 (centres unmarked)
Task: Form field 'greater Ki' accepts A or B ; which applies? Kindly give the label for the entry you pick.
Result: A
(A: 36.8 nM, B: 3.93 nM)

###

Tested on: HCT116 WT cells
Test: HCT116 proliferation assay, WT cells (CellTiter-Glo, 6 days)
Assay type: cell-based
Conditions: Homo sapiens, HCT-116, 144 h, read-out: Prolif_HCT116-WT IC50
METRIC NAME: IC50

Answered cases to consult:
COMPOUND: COC(CN(Cc1ccc(C(F)(F)F)cn1)C(=O)c1ccc2nc(N)c(C)cc2c1)C(F)(F)F (stereo not shown)
IC50: > 1000 nM
//
COMPOUND: COC[C@@H](C)N(Cc1ccc(C#N)cn1)C(=O)c1ccc2nc(N)c(Br)cc2c1
IC50: > 10000 nM
//
COMPOUND: C[C@H](c1ncccn1)N(Cc1ccc(C(F)F)cn1)C(=O)c1cnc2nc(N)c(Br)cc2c1
IC50: > 10000 nM

According to the records, this compound COc1ccc(CN(C(=O)c2cc3cc(C)c(N)nc3cc2F)[C@H](C)c2ncccn2)nn1 (single isomer, unassigned) displays IC50 of 1220 nM

###

System: HCT116 WT cells
Test: HCT116 proliferation assay, WT cells (CellTiter-Glo, 6 days)
Assay type: cell-based
Conditions: Homo sapiens, HCT-116, 144 h, read-out: Prolif_HCT116-WT IC50
Procedure: HCT116 MTAP null and WT cells were seeded in 96-well tissue culture plates in RPMI 1640 media + 10% fetal bovine serum. Plates were incubated overnight at 37° C. and 5% CO2. […] Effects on cell viability were measured with the CellTiter-Glo® Luminescent Cell Viability Assay (Promega) per manufacturer’s recommendation. Assay plates were read on an EnVision™ Multilabel Reader using the Ultra-Sensitive luminescence module.
METRIC NAME: IC50 (µM)

Answered examples (2):
COMPOUND: Cc1cc2cc(C(=O)N(Cc3ccc(Cl)nn3)[C@H](C)c3ncccn3)ccc2nc1N (single isomer, unassigned) [Example 819]
IC50 / µM: 0.543
--
COMPOUND: Cc1cc2cc(C(=O)N(Cc3ccc(C(F)(F)F)cn3)Cc3ncc(Cl)cc3F)ccc2nc1N [Example 304]
IC50 / µM: 4.1

I. Cc1cc2cc(C(=O)N(Cc3ccc(C(F)(F)F)cn3)[C@@H]3CCCc4cn[nH]c43)ccc2nc1N (single isomer, unassigned) [Example 527]
II. Cc1cc2cc(C(=O)N(Cc3ncccc3F)[C@H](C)c3ccc(C(F)(F)F)cn3)ccc2nc1N [Example 393]
III. Cc1cc2cc(C(=O)N(Cc3ccc(C(F)(F)F)nn3)[C@@H]3CCOc4ccc(F)nc43)ccc2nc1N [Example 515]
Task: Given 3 compounds, produce a descending ranking by IC50. Labels, requested order.
Result: II, III, I
(II: 8.21 µM, III: 0.48 µM, I: 0.142 µM)
